Measurement Target: T1, purified recombinant 161P2F10B extracellular domain (Tag5-161P2F10B ECD, amino acids 46-875) (human, UniProt O14638 46-875)
T1 construct: also called full length ECD
Test: SPR (BIAcore), MAb captured on chip, recombinant 161P2F10B injected, 1:1 fit;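 note: purified human MAbs immobilised by capture on a CM5 chip surface, about 150 RU of antibody per cycle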
I'd appreciate it if you marked entries Fulfilled when koff is lower than 0.0006 s⁻¹ and Not fulfilled when it is not.

binder="Ha16-1(3,5)18 (antibody, IgG1, V domains shown, The limits of VH (1-114) and VL (1-108) are stated in CLM-00001; the entries also hold a portion of the constant region; also called Ha16-1(3, 5)18.1; ATCC PTA-7452) VH: GPGLVKPSETLSLTCTVPGGSIRSYFWSWIRQPAGKGLEWIGRFYFSGSTNYNPSLKSRVTMSVDTSKNQFSLKLSSVTAADTAVYYCARDYGDHYYYYGMDVWGQGTTVTVSS VL: VLTQPPSVSAAPGQKVTISCSGSSSNIGNNYVSWYQQFPGTAPKFLIYDNNKRSSGIPDRFSGSKSGTSATLGITGLQTGDEADYYCGTWDSSLSAVIFGGGTKLTVL" assigned_class="Not fulfilled"
binder="Ha16-1(3,5)42 (antibody, V domains shown, Entries hold the leader (or part of it) and a portion of the constant region) VH: EVQLVQSGAEVKKPGESLKISCKGSGYRFTSYWIGWVRQMPGKGLEWMGIIYPGDSDTRYSPSFQGQVTISADKSISTAYLQWSSLKASDTAMYYCARKDYYYYSMDVWGQGTTVTVSS VL: QSALTQPASVSGSPGQSITISCTGTSSDVGRFNYVSWYQQRPGKAPKLMIYAVNIRPSGVSNRFSGSKSGNTASLTISGLQAEDEAGYYCSSYTSSSTLLVFGGGTKLTVLG" assigned_class=Fulfilled

Inquiry: Below 0.0006 s⁻¹ on koff? Entry H16-9.44 (antibody, V domains shown, also called Ha16-9.44) VH: LSLTCTVSGGSISSYYWSWIRQSAGKGLEWIGRIYTGVSTNYNPSLKSRVTMSVDTSKNQFSLKLSSVTAADTAVYYCARDYYDSSGYYPFDYWGQGTLVTVSS VL: DIQMTQSPSSLSASVGDRVTISCRASQGISNYLAWFQQKPGKAPKSLIYAASSLENGVPSKFSGSGSGTDFTLTISSLQPEDFATYYCQQYNSSPFTFGPGTKVDIRR
Reply text: Fulfilled

Inquiry: # check: koff < 0.0006 s⁻¹ for Ha16-1(1)23 (antibody, V domains shown) VH: VESGGGVVQPGRSLRLSCAASGFTFRSYGMHWVRQAPGKGLEWVAVIWSDGSNKYYADSVKGRFTISRDNSKNTLYLQMNSLRAEDTAVYYCAREGYYGSGSYYYYYGMDVWGQGTTVTVSS VL: QAGLTQPPSVSKGLRQTATLTCTGNSNNVGTQGAAWLQQHQGHPPKLLSYRNNNRPSGISERLSASTSGNTASLTITGLQPEDEADYYCSAWDSSLSAVVFGGGTKLTVLG
Reply text: Not fulfilled

Inquiry: Criterion: koff strictly below 0.0006 s⁻¹. Is it met by Ha16-1(1)11 (antibody, V domains shown, also called ATCC PTA-7450) VH: GPGLVKPSETLSLTCTVSGGSISSYYWSWIRQPPGKGLEWIGYIYYSGSTNYNPSLKSRVTISVDTSKNQFSLKLSSVTAADTAVYYCARAVSYYYYGMDVWGQGTTVTVSS VL: DIQMTQSPSSLSASVGDRVTITCRTIQNINSYLNWYQQRPGKAPKLLIYATSSLQSGVPSRFSGSGSGTDFTLTISSLQPEDFATYYCQQTYSTLFTFGPGTKVDIKR ?
Reply text: Not fulfilled
